Data origin, for the record: patent US20250152746A1

tested on: PCSK9 gene; assay: PCSK9 gRNA/SpCas9 editing in primary cynomolgus hepatocytes (Tables 2, 22); assay type: cell-based, cynomolgus monkey; conditions: SpCas9 mRNA MS002, 2500 ng/test article/mL, rep1
In the oligonucleotide strings, read from the 5' end, every base follows the letter of its sugar. An asterisk marks phosphorothioate; unmarked linkages are phosphodiester. Other units and linkages are bracketed, terminal groups are in braces. A string of capitals states the bases alone. m = 2'-O-methyl; r = 2'-OH (RNA)
What Cynomolgus Primary Hepatocytes-% Editing was measured for each of the following?
Quick reminder: number only, in %, skip the unit.

Tell me Cynomolgus Primary Hepatocytes-% Editing reported for GA403 (nucleic acid) guide: mU*mC*mA*rGrCrUrCrCrArGrGrCrGrGrUrCrCrUrGrGmGrUrUrUrUrArGmAmGmCmUmArGmAmAmAmUmAmGmCmAmArGrUrU*mArAmArAmUrAmAmGmGmCmUmArGrUmCmCrGrUrUrAmUmCrArAmCmUmUrGmAmAmAmAmAmGmUmGrGmCmAmCmCmGmAmGmUmCmGmGmUmGmCmU*mU*mU*mUmUrUmU
52.62

Tell me Cynomolgus Primary Hepatocytes-% Editing reported for GA399 (nucleic acid) guide: mU*mC*mA*rGrCrUrCrCrArGrGrCrGrGrUrCrCrUrGrGmGrUrUrUrUrArGmAmGmCmUmAmGmAmAmAmUmAmGmCmAmArGrUrUmArAmArAmUrAmAmGmGmCmUmArGmUrCmCrGrUrUmAmUmCrArAmCmUmUmGmAmAmAmAmAmGmUmGmGmCmAmCmCmGmAmGmUmCmGmGmUmGmCmU*mU*mU*mUmUmUmU
58.97

Tell me Cynomolgus Primary Hepatocytes-% Editing reported for GA402 (nucleic acid) guide: mU*mC*mA*rGrCrUrCrCrArGrGrCrGrGrUrCrCrUrGrGmGrUrUrUrUrArGmAmGmCmUmArGmAmAmAmUmAmGmCmAmArGrUrUmArAmArAmUrAmAmGmGmCmUmArGrUmCmCrGrUrUrAmUmCrArAmCmUmUrGmAmAmAmAmAmGmUmGrGmCmAmCmCmGmAmGmUmCmGmGmUmGmCmU*mU*mU*mUmUrUmU
45.58

Tell me Cynomolgus Primary Hepatocytes-% Editing reported for GA404 (nucleic acid) guide: mU*mC*mA*rGrCrUrCrCrArGrGrCrGrGrUrCrCrUrGrGmGrUrUrUrUrArGmAmGmCmUmArGmAmAmAmUmAmGmCmAmArGrUrUmArAmArAmUrAmAmGmGmCmUmArGrUmCmCrGrUrU*rAmUmCrArAmCmUmUrGmAmAmAmAmAmGmUmGrGmCmAmCmCmGmAmGmUmCmGmGmUmGmCmU*mU*mU*mUmUrUmU
48.3

Tell me Cynomolgus Primary Hepatocytes-% Editing reported for GA397 (nucleic acid) guide: mU*mC*mA*rGrCrUrCrCrArGrGrCrGrGrUrCrCrUrGrGmGrUrUrUrUrArGmAmGmCmUmArGmAmAmAmUmAmGmCmAmArGrUrUmArAmArAmUrAmAmGmGmCmUmArGrUmCmCrGrUrU*rAmUmCrArAmCmUmUrGmAmAmAmAmAmGmUmGrGmCmAmCmCmGmAmGmUmCmGmGmUmGmCmU*mU*mU*mUmUmUmU
56.65

Tell me Cynomolgus Primary Hepatocytes-% Editing reported for GA396 (nucleic acid) guide: mU*mC*mA*rGrCrUrCrCrArGrGrCrGrGrUrCrCrUrGrGmGrUrUrUrUrArGmAmGmCmUmArGmAmAmAmUmAmGmCmAmArGrUrU*mArAmArAmUrAmAmGmGmCmUmArGrUmCmCrGrUrUrAmUmCrArAmCmUmUrGmAmAmAmAmAmGmUmGrGmCmAmCmCmGmAmGmUmCmGmGmUmGmCmU*mU*mU*mUmUmUmU
53.98

Tell me Cynomolgus Primary Hepatocytes-% Editing reported for GA398 (nucleic acid) guide: mU*mC*mA*rGrCrUrCrCrArGrGrCrGrGrUrCrCrUrGrGmGrUrUrUrUrArGmAmGmCmUmAmGmAmAmAmUmAmGmCmAmArGrUrUmArAmArAmUrAmAmGmGmCmUmArGrUrCmCrGrUrUrAmUmCrArAmCmUmUmGmAmAmAmAmAmGmUmGmGmCmAmCmCmGmAmGmUmCmGmGmUmGmCmU*mU*mU*mUmUmUmU
59.85
